Measured values drawn from ChEMBL document CHEMBL4808225 for this set.

Provide the recorded Activity for the entries that follow.
- TESTED TARGET: Glycogen synthase kinase-3 beta (Homo sapiens) (UniProt P49841)
- Sequence (P49841 whole entry, looked up, the tested form may be a part): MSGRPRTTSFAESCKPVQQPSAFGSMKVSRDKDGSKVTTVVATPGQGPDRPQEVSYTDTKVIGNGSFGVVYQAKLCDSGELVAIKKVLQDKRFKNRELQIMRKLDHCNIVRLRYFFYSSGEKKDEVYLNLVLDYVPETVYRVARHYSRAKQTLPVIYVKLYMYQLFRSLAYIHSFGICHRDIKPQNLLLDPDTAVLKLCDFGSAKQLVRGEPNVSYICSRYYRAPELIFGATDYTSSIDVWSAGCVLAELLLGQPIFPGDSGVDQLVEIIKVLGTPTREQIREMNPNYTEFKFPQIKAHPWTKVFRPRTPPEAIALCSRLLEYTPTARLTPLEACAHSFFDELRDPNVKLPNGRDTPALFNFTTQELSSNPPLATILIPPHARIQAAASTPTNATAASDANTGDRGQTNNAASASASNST
- ASSAY DETAILS: Inhibition of wild-type human full length GSK3B (M1 to T433 residues) expressed in mammalian expression system assessed as remaining activity at 1 uM by Kinomescan method relative to control
Answers are plain numbers, in %.

* CC1CCN(c2nccc(-c3cnn4ncccc34)n2)C1 (single isomer, unassigned) | 100
* FC1CCN(c2nccc(-c3cnn4ncccc34)n2)C1 (single isomer, unassigned) | 98
* CC1CCCN1c1nccc(-c2cnn3ncccc23)n1 (stereo not given) | 92
* CN(C)c1nccc(-c2cnc3ncccn23)n1 | 77

Turning now to a further record.
Query (molecule): Cc1cnn2ncc(-c3ccnc(N(C)C)n3)c2c1 ; field requested: Activity
100

---

- TESTED TARGET: Dual specificity tyrosine-phosphorylation-regulated kinase 1A (Homo sapiens)
- ASSAY DETAILS: Binding affinity to biotinylated DYRK1A (unknown origin) expressed in Escherichia coli BL21 (DE3) assessed as dissociation constant measured up to 5 min by SPR method
Provide the recorded Kd for the entries that follow.
The reply should read as a number followed by its unit.

Solved cases below.
• CN(c1nccc(-c2cnn3ncccc23)n1)C1CC1 = 90.4 nM
• Nc1nccc(-c2cnn3ncccc23)n1 = 134 nM
• c1cnn2ncc(-c3ccnc(N4CCC45COC5)n3)c2c1 = 64 nM

Query (compound): CN(C)c1ncnc(-c2cnn3ncccc23)n1 ; field requested: Kd
153 nM

---

Provide the recorded log10 IC50 for the entries that follow.
- TESTED TARGET: Dual specificity tyrosine-phosphorylation-regulated kinase 1A (Homo sapiens)
- ASSAY DETAILS: Displacement of Kinase tracer 236 from biotinylated DYRK1A (unknown origin) expressed in Escherichia coli BL21 (DE3) incubated for 1.5 hrs by TR-FRET assay
Record value = log10 of IC50 given in nM.

Solved cases below.
• Cc1ccnn2ncc(-c3ccnc(N(C)C)n3)c12 = 2.86
• CC(C)c1cc(-c2cnn3ncccc23)nc(N(C)C)n1 = 4.28

Here are 5 compounds. What values of log10 IC50 were reported for them?
1. COc1ccnn2ncc(-c3ccnc(N(C)C)n3)c12
2. CCn1cc(-c2ccnc(N(C)C)n2)c2cccnc21
3. CN(C)c1nccc(-c2cnc3ncccn23)n1
4. CC1(C)CCN(c2nccc(-c3cnn4ncccc34)n2)C1
5. CNc1nccc(-c2cnn3ncccc23)n1

1. 2.14
2. 3.89
3. 2.20
4. 2.63
5. 2.26

Here are 5 compounds. What values of log10 IC50 were reported for them?
1. CCCN(c1nccc(-c2cnn3ncccc23)n1)C(C)C
2. c1cnn2ncc(-c3ccnc(N4CC5CC5C4)n3)c2c1 (configuration not stated)
3. CC1(F)CN(c2nccc(-c3cnn4ncccc34)n2)C1
4. COc1ccc2c(-c3ccnc(N(C)C)n3)cnn2n1
5. Cc1nn2ncccc2c1-c1ccnc(N(C)C)n1

1. 2.88
2. 2.49
3. 2.57
4. 3.42
5. 4.49
